tested on: IGROV-1; assay: SRB cytotoxicity assay, IGROV-1 cells; type: cell-based; details: Homo sapiens, IGROV-1, malignant, ovarian, 72 h
pIC50: −log10 of the molar value.

# CPD_SMILES, pIC50
rows = [
    ("C[C@](C#N)(COc1cc(C#N)ccc1C(F)(F)F)NC(=O)c1ccc(S(=O)(=O)C(F)(F)F)cc1", 5.36),
    ("C[C@](C#N)(COc1cc(C#N)ccc1C(F)(F)F)NC(=O)c1ccc(SC(F)(F)F)cc1", 5.36),
]

---

tested on: PC-3; experiment: SRB cytotoxicity assay, PC-3 cells; assay type: cell-based; settings: Homo sapiens, PC-3, malignant, prostatic, 72 h
pIC50: −log10 of the molar value.
RECORDED_ENDPOINT: pIC50

# MOLECULE, RECORDED_VALUE
measured = [
    ("C[C@](C#N)(COc1cc(C#N)ccc1C(F)(F)F)NC(=O)c1ccc(SC(F)(F)F)cc1 [MPL]", 4.68),
]

---

test system: OVCAR-3 and A2780; format: cell-based, human; details: Example 2; cell line not given

# MOLECULE, effect of combination with MPL, in words
rows = [
    ("N[C@@H](Cc1c[nH]cn1)C(=O)O", "no effect"),
    ("NC(Cc1c[nH]cn1)C(=O)O (racemic)", "no effect"),
    ("NCC(=O)O", "no effect"),
]

---

test system: MDA-MB-231; assay: SRB cytotoxicity assay, MDA-MB-231 cells; format: cell-based; settings: MDA-MB-231, malignant, breast, 72 h
pIC50: −log10 of the molar value.
RECORDED_ENDPOINT: pIC50

# CPD_SMILES, RECORDED_ENDPOINT, RECORDED_VALUE
rows = [
    ("C[C@](C#N)(COc1cc(C#N)ccc1C(F)(F)F)NC(=O)c1ccc(SC(F)(F)F)cc1", "pIC50", 4.59),
]

---

tested on: 28 malignant cell lines; test: SRB cytotoxicity assay, summary over malignant cell lines; format: cell-based; settings: all 28 malignant cell lines tested, with the exception of CFPAC-1 and SKOV-3; summary of Table 3; read-out: IC50 proliferation
RECORDED_ENDPOINT: IC50

# COMPOUND, RECORDED_ENDPOINT, RECORDED_VALUE
rows = [
    ("C[C@](C#N)(COc1cc(C#N)ccc1C(F)(F)F)NC(=O)c1ccc(SC(F)(F)F)cc1 [MPL]", "IC50", "2 to 25 µM"),
]
